target: ULK1 kinase (Homo sapiens, UniProt O75385, E37A/K38A); experiment: Biochemical assay for ULK1.3 (coupled pyruvate kinase/lactate dehydrogenase assay, peptide substrate); conditions: 0.1 nM ULK1 (residues 1-283), 1 mM ATP
Sequence (O75385 1-283 E37A/K38A): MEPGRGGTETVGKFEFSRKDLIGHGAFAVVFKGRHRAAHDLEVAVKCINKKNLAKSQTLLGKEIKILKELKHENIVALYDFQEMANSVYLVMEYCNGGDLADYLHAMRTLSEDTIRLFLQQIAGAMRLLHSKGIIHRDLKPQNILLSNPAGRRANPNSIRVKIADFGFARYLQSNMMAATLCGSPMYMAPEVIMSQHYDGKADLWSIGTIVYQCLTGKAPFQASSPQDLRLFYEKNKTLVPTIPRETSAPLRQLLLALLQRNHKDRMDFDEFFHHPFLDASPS
Catalogue of IC50 values

INPUT: Input CN(C)C1CN(c2ccc(Nc3ncc(C(F)(F)F)c(NCCCN4CCOCCC4=O)n3)c(C3CC3)c2)C1 , output reported IC50.
OUTPUT: 1 to 25 nM

Others:
INPUT: Report IC50, nothing else, for this compound: CN1CCN(c2ccc(Nc3ncc(C(F)(F)F)c(NCCCN4CCOCCC4=O)n3)c(C(C)(C)O)c2)CC1
OUTPUT: > 500 nM

INPUT: # return recorded IC50 for input CN1CCN(c2ccc(Nc3ncc(C(F)(F)F)c(NCCCN4CCOCCC4=O)n3)c(C3CCCC3)c2)CC1
OUTPUT: 1 to 25 nM

INPUT: Respond only with IC50 recorded for CN1CCN(c2ccc(Nc3ncc(C(F)(F)F)c(NCCCN4CCCOC4=O)n3)c(C3CC3)c2)CC1
OUTPUT: 1 to 25 nM

INPUT: Answer with the recorded IC50 of CCc1cc(N2CCN(C)CC2)ccc1Nc1ncc(C2CC2)c(NCCCN2CCCOCC2=O)n1 only.
OUTPUT: > 500 nM

INPUT: Give a short answer stating reported IC50 for CCc1cc(N2CC3CCC(C2)N3C)ccc1Nc1ncc(C(F)(F)F)c(NCCCN2CCCOCC2=O)n1 .
OUTPUT: 100 to 500 nM

INPUT: In one line, give reported IC50 of the entry CN1CCN(c2ccc(Nc3ncc(C(F)(F)F)c(NCCCN4CCC(C)(C)OC4=O)n3)c(C3CC3)c2)CC1 .
OUTPUT: 1 to 25 nM
